Measured ELISA absorbance (A405 nm), listed per entry.
Target: T1, PD-L2 (coated antigenic protein) (UniProt Q9BQ51 20-220, limits assumed)
T1 sequence (looked up): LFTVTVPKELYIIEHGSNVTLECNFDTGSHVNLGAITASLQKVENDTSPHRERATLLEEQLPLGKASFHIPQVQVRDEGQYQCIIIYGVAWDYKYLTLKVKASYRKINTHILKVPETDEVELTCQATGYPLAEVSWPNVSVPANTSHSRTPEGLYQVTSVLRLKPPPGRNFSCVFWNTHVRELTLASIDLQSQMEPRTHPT
Test: ELISA, purified nanobody 10 ug/mL on coated PD-L2, anti-HA detection
Report the value in A405 nm with no unit label.

Reference set (5 entries):
binder="SEQ ID NO 5 (VHH, pMECS-expressed; also called anti-PD-L1 nanobody No. 5; VHH numbered 5) VHH: QVQLQESGGGSVQTGGSLRLSCAASTSIYSNNYMAWFSQAPGKGREGVAAVYIDDGRPYYADSVKGRFTISLDSAKNTVYLQMNGLKPEDTAMYYCAAAPGPLSRNYWYTSANYDYWGQGTQVTVSS" quantity_name="ELISA absorbance (A405 nm)" val=0.128
binder="SEQ ID NO 1 (VHH, pMECS-expressed; also called anti-PD-L1 nanobody No. 1; VHH numbered 1) VHH: QVQLQESGGGSVQTGGSLRLSCTASTSIYSNNYMAWFSQSPGKGREGVAAVYMDDGRPYYADSVKGRFTISLDSAKNTMYLQMNSLKPEDTAMYYCAAAPGPLSRNYWYTSANYDYWGQGTQVTVSS" quantity_name="ELISA absorbance (A405 nm)" val=0.118
binder="SEQ ID NO 7 (VHH, pMECS-expressed; also called anti-PD-L1 nanobody No. 7; VHH numbered 7) VHH: QVQLQESGGGSVQTGGSLRLSCACSTSIYSTNYMAWFSQAPGKGREGVAAVYIGDGRPYYADSVKGRFTISLDSAKNTVYLQMNSLKPEDTAMYYCAAAPGPLSRNYWYTSANYDYWGQGTQVTVSS" quantity_name="ELISA absorbance (A405 nm)" val=0.119
binder="SEQ ID NO 3 (VHH, pMECS-expressed; also called anti-PD-L1 nanobody No. 3; VHH numbered 3) VHH: QVQLQESGGGSVQTGGSLRLSCAASTSLYSYNYMAWFSQAPGKGREGVAAVYVGDGRPYYADSVKGRFTISLDSAKNAVYLQMNSLKPEDTAMYYCAAAPGPLSHNYWYTSANYDYWGQGTQVTVSS" quantity_name="ELISA absorbance (A405 nm)" val=0.112
binder="SEQ ID NO 9 (VHH, pMECS-expressed; also called anti-PD-L1 nanobody No. 9; VHH numbered 9) VHH: QVQLQESGGGSVQAGGSLRLSCAASGYTYSNDGMGWFRQIPGKEREGVAAISPTGRRTEYADSVQGRFTISRDNAKNMLSLQMNSLKPEDTGMYYCAREGSGSFSLQNSAVRSWGQGTQVTVSS" quantity_name="ELISA absorbance (A405 nm)" val=0.131

Alright, here's another binder for you.
## Input Query (binder): SEQ ID NO 11 (VHH, pMECS-expressed; also called anti-PD-L1 nanobody No. 11; VHH numbered 11) VHH: QVQLQESGGGSVQAGETLRLSCTASGDTFDDSGVGWFRQVSGNECDLVSSINRDGTTYYAPSVAGRFTISQNNAKNTVYLQMNSLKPDDTAVYYCATVPAVGIVVRITCRGPFGYWGQGTQVTVSS ; field requested: ELISA absorbance (A405 nm)
## Output 0.116

# credit: patent US20190177416A1
